TARGET_UNDER_TEST: PilF159-302 Q218E (Thermus thermophilus, UniProt Q72H73, Q218E)
ASSAY: ITC c-di-GMP binding to Q218E mutant, pH series
CONDITION_CONTEXT: Bis-Tris, 20 °C, pH 7.0
MEASURE_NAME: Kd (nM)

molecule="Nc1nc2c(ncn2C2OC3COP(=O)(O)OC4C(COP(=O)(O)OC3C2O)OC(n2cnc3c(=O)[nH]c(N)nc32)C4O)c(=O)[nH]1 (stereo not shown)" value_measured=249

----------
TARGET_UNDER_TEST: PilF159-302 Q190E (Thermus thermophilus, UniProt Q72H73, Q190E)
Sequence (Q72H73 159-302, stated change not applied): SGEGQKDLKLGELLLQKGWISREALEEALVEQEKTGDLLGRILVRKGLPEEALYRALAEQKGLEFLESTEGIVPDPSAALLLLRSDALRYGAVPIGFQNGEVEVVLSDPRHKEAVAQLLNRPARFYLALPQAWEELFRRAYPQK
ASSAY: ITC c-di-GMP binding to Q190E mutant, pH series
CONDITION_CONTEXT: Bis-Tris, 20 °C, pH 7.5, buffer cross measurement, singlet
pKd: −log10 of the molar value.
MEASURE_NAME: pKd

compound="Nc1nc2c(ncn2C2OC3COP(=O)(O)OC4C(COP(=O)(O)OC3C2O)OC(n2cnc3c(=O)[nH]c(N)nc32)C4O)c(=O)[nH]1 (stereo not shown) [c-di-GMP]" measure_name=pKd value_measured=6.30
